- Test system: radish
- experiment: Pre-emergence application, herbicidal effect on radish (Table 1)
- Format: in vivo
- Set-up: key: 0: not damaged; 5: completely killed
- particulars: 20 g./a., 20 days after application, score 0-5
- Protocol: Seeds of barnyard grass (Echinochloa crus-galli) and large crabgrass (Digitaria sanguinalis) as representatives of grassy weeds and those of radish, redroot pigweed (Amaranthus retroflexus), common purslane (Portulaca oleracea) and common lambsquarter (Chenopodium album) as representatives of broad-leaved weeds were individually sowed in flower pots of about 10 cm. in diameter. […] Herbicidal effects were evaluated by the numerals ranging from 0 (not damaged) to 5 (completely killed). […]
Could you please report measured Herbicidal effect, radish for the items listed next?
No unit in the answer, please; the number alone is enough.

Would you kindly share the measured Herbicidal effect, radish for CCOP(=O)(SCCC(C)C)SCC(=O)N1CCCCC1C (stereo not drawn) ?
0

Now consider CCCOP(=O)(SC)SCC(=O)N1CCCCC1C (stereo not drawn) .
0

// next record CCCCSP(=O)(OCCC)SCC(=O)N1CCCCC1CC (stereo not drawn)
0

* * *

- Test system: radish
- experiment: Pre-emergence application, herbicidal effect on radish (Table 1)
- Assay type: in vivo
- Design: key: 0: not damaged; 5: completely killed
- particulars: 20 g./a., 20 days after application, score 0-5
quantity-kind: Herbicidal effect, radish
Give only the figure.

Request the reported Herbicidal effect, radish associated with CCCCOP(=O)(SCC(=O)N1CCCCC1CC)SCC(C)C (centres unmarked) [Compound 97]
0

Subsequent entry: CCCCOP(=O)(SCCCC)SCC(=O)N1CCCCC1CC (centres unmarked) [Compound 95]
0

Moving on to the next compound: C=CCSP(=O)(OCCC)SCC(=O)N1CCCCC1C (centres unmarked) [Compound 70]
0

What do you get for CCOP(=O)(SCC(=O)N1CCCCC1C)SC(C)CC (centres unmarked) [Compound 5] ?
0

Do the same for CCCOP(=O)(SC)SCC(=O)N1CCCCC1CC (centres unmarked) [Compound 83] please
1

* * *

Kindly state Herbicidal effect, redroot pigweed for each of the entries shown.
- Test system: redroot pigweed (Amaranthus retroflexus)
- experiment: Pre-emergence application, herbicidal effect on redroot pigweed (Table 1)
- Assay type: in vivo
- particulars: 20 g./a., 20 days after application, score 0-5

Find the measured Herbicidal effect, redroot pigweed: item CCCCSP(=O)(OCC)SCC(=O)N1CCCCC1C (stereo not drawn) [Compound 4] , target or system redroot pigweed (Amaranthus retroflexus).
4

Then what about the compound CCCCOP(=O)(SCC(=O)N1CCCCC1CC)SC(C)CC (stereo not drawn) [Compound 96] ?
4

Also CCOP(=O)(SC)SCC(=O)N1CCCCC1CC (stereo not drawn) [Compound 74] , if possible.
5

Follow-up entry: CCCCOP(=O)(SCC)SCC(=O)N1CCCCC1C (stereo not drawn) [Compound 15]
5

Cool, now C=C(C)CSP(=O)(OCC)SCC(=O)N1CCCCC1CC (stereo not drawn) [Compound 81]
5

Same question for CCOP(=O)(SCC(=O)N1CCC(C)CC1)SC(C)C (stereo not drawn) [Compound 26] please.
4

Similarly, CCCOP(=O)(SCC(=O)N1CCCCC1CC)SC(C)CC (stereo not drawn) [Compound 87] ?
4

// same read-out, input: CCOP(=O)(SCC(=O)N1CCCCC1CC)SCc1ccc(CC)cc1 (stereo not drawn) [Compound 58]
4

Could you do the same for CCCOP(=O)(SCC(=O)N1CCCCC1C)SC(C)C (stereo not drawn) [Compound 36] , please?
4

And what about the compound COP(=S)(NC(C)C)Oc1ccc(Cl)cc1Cl (stereo not drawn) [Zytron, reference compound] ?
0

// next record CCCCSP(=O)(OCCC)SCC(=O)N1CCCCC1C (stereo not drawn) [Compound 17]
4

And the next one, C=CCSP(=O)(OCCC)SCC(=O)N1CCCCC1C (stereo not drawn) [Compound 70] ?
5

Field entry: CCOP(=O)(SCC(=O)N1CCCCC1C)SC(C)c1ccccc1 (stereo not drawn) [Compound 64]
3

Okay, and CCOP(=O)(SCC(=O)N1CCCCC1C)SC(C)C (stereo not drawn) [Compound 3] ?
5

Another compound: CCOP(=O)(SCC(=O)N1CCCCC1C)SC1CCCCC1 (stereo not drawn) [Compound 10]
4

Try this compound too: C=CCSP(=O)(OCCC)SCC(=O)N1CCC(C)CC1 (stereo not drawn) [Compound 18]
4

Entry to check: CCCCOP(=O)(SCCC(C)C)SCC(=O)N1CCCCC1CC (stereo not drawn) [Compound 99]
5

Param item: CCCCSP(=O)(OCCC)SCC(=O)N1CCCCC1CC (stereo not drawn) [Compound 86]
5

// next record CCCCOP(=O)(SCC(=O)N1CCCCC1CC)SCC(C)C (stereo not drawn) [Compound 97]
4

Now consider CCCCOP(=O)(SCCCC)SCC(=O)N1CCCCC1CC (stereo not drawn) [Compound 95] and answer again.
3

Also, C=C(Cl)CSP(=O)(OCC)SCC(=O)N1CCCCC1CC (stereo not drawn) [Compound 82] please.
4

* * *

- System: redroot pigweed (Amaranthus retroflexus)
- experiment: Pre-emergence application, herbicidal effect on redroot pigweed (Table 1)
- Type: in vivo
- Set-up: key: 0: not damaged; 5: completely killed
- particulars: 40 g./a., 20 days after application, score 0-5
quantity-kind: Herbicidal effect, redroot pigweed
// print number alone

What value of Herbicidal effect, redroot pigweed has been recorded for this entry: CCOP(=O)(SCC(=O)N1CCCCC1C)SCc1ccc(C(C)(C)C)cc1 (centres unmarked)
5

Try CCOP(=O)(SCCCC(C)C)SCC(=O)N1CCCCC1CC (centres unmarked) next.
5

Then what about the compound CCOP(=O)(SCC(=O)N1CCCCC1C)SCc1ccccc1 (centres unmarked) ?
5

And what about the compound CCCOP(=O)(SCC)SCC(=O)N1CCCCC1CC (centres unmarked) ?
5

Another compound to check: CCOP(=O)(SCCC(C)C)SCC(=O)N1CCCCC1C (centres unmarked)
5

Lookup CCOP(=O)(SCC(=O)N1CCC(C)CC1)SC(C)C (centres unmarked)
4

Queued: CCOP(=O)(SCC)SCC(=O)N1CCCCC1CC (centres unmarked)
5

Quick one: CCCCSP(=O)(OCC)SCC(=O)N1CCC(C)CC1 (centres unmarked)
4

Do the same for CCCOP(=O)(SCC(=O)N1CCCCC1C)SCC(C)C (centres unmarked) please
5

Param item: CCCOP(=O)(SCC(=O)N1CCCCC1C)SC(C)C (centres unmarked)
4

What do we get for CCOP(=O)(SCC(=O)N1CCCCC1C)SCc1ccc(Cl)cc1 (centres unmarked) ?
5

Next: CCOP(=O)(SCC)SCC(=O)N1CCCCC1C (centres unmarked)
5

Try the compound CCCOP(=O)(SCCC(C)C)SCC(=O)N1CCCCC1C (centres unmarked)
5

Okay, and CCCOP(=O)(SC)SCC(=O)N1CCCCC1CC (centres unmarked) ?
5

What about this compound? CCOP(=O)(SCC(=O)N1CCCCC1C)SC(C)c1ccccc1 (centres unmarked)
4

Lookup CCOP(=O)(SCC(=O)N1CCCCC1C)SC1CCCCC1 (centres unmarked)
4

Follow-up entry: CCCOP(=O)(SCC(=O)N1CCCCC1CC)SC(C)CC (centres unmarked)
5

Try CCCCOP(=O)(SCC(=O)N1CCCCC1CC)SC(C)C (centres unmarked) next.
5

Same lookup for CCOP(=O)(SCC(=O)N1CCCCC1CC)SCc1ccc(CC)cc1 (centres unmarked) , please.
5

Same thing, different compound: CCOP(=O)(SCC(=O)N1CCCCC1C)SCc1ccc(CC)cc1 (centres unmarked)
5

Same for CCCCOP(=O)(SCC(=O)N1CCCCC1CC)SCC(C)C (centres unmarked)
5

Follow-up entry: CCCCCSP(=O)(OCCC)SCC(=O)N1CCCCC1CC (centres unmarked)
5

Entry CCOP(=O)(SCCC(C)C)SCC(=O)N1CCCCC1CC (centres unmarked) please
5

* * *

- System: large crabgrass (Digitaria sanguinalis)
- experiment: Pre-emergence application, herbicidal effect on large crabgrass (Table 1)
- Format: in vivo
- Set-up: key: 0: not damaged; 5: completely killed
- particulars: 20 g./a., 20 days after application, score 0-5
quantity-kind: Herbicidal effect, large crabgrass
Hey, just send me the number, nothing else.

What does the data say about its Herbicidal effect, large crabgrass? Entry: C=CCSP(=O)(OCCC)SCC(=O)N1CCC(C)CC1 (stereo not drawn) [Compound 18]
5

Follow-up entry: CCOP(=O)(SCCCC(C)C)SCC(=O)N1CCCCC1CC (stereo not drawn) [Compound 80]
5

How about this compound: CCCCSP(=O)(OCCC)SCC(=O)N1CCCCC1C (stereo not drawn) [Compound 17]
5

Subsequent entry: CCCCOP(=O)(SCCC(C)C)SCC(=O)N1CCCCC1CC (stereo not drawn) [Compound 99]
5

Repeat for the following compound: CCOP(=O)(SCCc1ccccc1)SCC(=O)N1CCCCC1C (stereo not drawn) [Compound 63]
5

One more compound: CCOP(=O)(SCC(=O)N1CCC(C)CC1)SC(C)C (stereo not drawn) [Compound 26]
5

Can you check CCCOP(=O)(SC)SCC(=O)N1CCCCC1C (stereo not drawn) [Compound 66] next?
5

Proceed to CCOP(=O)(SCC(=O)N1CCCCC1C)SC(C)CC (stereo not drawn) [Compound 5]
5

Next entry: CCOP(=O)(SCC(=O)N1CCCCC1CC)SC(C)C (stereo not drawn) [Compound 76]
5

And then CCCSP(=O)(OCC)SCC(=O)N1CCCCC1CC (stereo not drawn) [Compound 14] , what is it?
5

Moving on to CCCOP(=O)(SC)SCC(=O)N1CCCCC1CC (stereo not drawn) [Compound 83]
5

// query: CCCCCSP(=O)(OCC)SCC(=O)N1CCCC(C)C1 (stereo not drawn) [Compound 72]
5

Record: CCCCOP(=O)(SCCC)SCC(=O)N1CCCCC1CC (stereo not drawn) [Compound 93]
5

Quick one: CCCCOP(=O)(SCC(=O)N1CCCCC1C)SCc1ccc(C)cc1 (stereo not drawn) [Compound 56]
5

Try this compound too: CCCCCCCCSP(=O)(OCC)SCC(=O)N1CCCCC1C (stereo not drawn) [Compound 8]
4

And for C=C(Cl)CSP(=O)(OCC)SCC(=O)N1CCCCC1CC (stereo not drawn) [Compound 82] ?
5

Next: CCOP(=O)(SCC)SCC(=O)N1CCCCC1C (stereo not drawn) [Compound 1]
5

Try the compound CCOP(=O)(SCC(=O)N1CCCCC1C)SCC(C)c1ccccc1 (stereo not drawn) [Compound 65]
5

Record: CCCOP(=O)(SCCC)SCC(=O)N1CCCCC1C (stereo not drawn) [Compound 16]
5

How about this compound: CCCSP(=O)(OCC)SCC(=O)N1CCC(C)CC1 (stereo not drawn) [Compound 12]
5

Now consider CCOP(=O)(SC)SCC(=O)N1CCCCC1CC (stereo not drawn) [Compound 74] .
5
